Let's look at some sequences and their measured apparent KD of K4 kissing-loop reporter.
Tested on: K4 kissing-loop RNA reporter;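 further: bound reporter read as fluorescence of individual clusters on recovered sequencing chips by microscopy, with normalized cluster intensities fitted with a binding model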
METHOD: apparent KD of K4 kissing-loop reporter; higher = weaker reporter binding
EXPERIMENTAL_CONTEXT: Eterna round: R107; input ligand: none
READOUT: apparent KD of K4 kissing-loop reporter (µM)

SEQUENCE_DATA | OBSERVED_VALUE
GGAUAGGAUAGAGGAUAUGGGCUAGGCAAGAAUAACUUGUCUAGCAAAUCCAUGAGGAGUGAUGUUCCAGAAGGCUAUCCUAUCG [FmnBX 1 U9+A77] | 0.164
GCAACAUUGGCAGGAUAUCCUUCUCAGUGAUGUUGAGGGUUCAGCUAACGAAAGUUAGUUGUACCGGGAGAAGGGCUAAUGUUGC [Omei KL FMN B SS A v8] | 1.1
AUACAGCGACGCGCUAGUGAUGUUAGCGAAGGAGCGACUCAUGAGUCAGGUAGGUCGCGCUAACGUGGUUACGAGAGUAACCAGU [Arg A Ex t1a] | 0.0936
AAGCAGUCACUCGAAGCCAUCGAAGAUGGUCGAGGACCGGUACGGCCGCCACUCGGAGUGAUGUUCCGAAGACUGCAAAAUAAAA [#SwitchBubble 11] | 0.286
CCUAUCUCAUACGAUACCAGUCCGAGUGAUGUUCGAACAUAAAUUAGUUUGCCAUAUAAUGACCCUUGGCAGCGUAUGGGAUAGG [Ex Theophylline B K4 12] | 0.55
AGAGUUAUGAGAGGAUAUGCGGCUAGUACUCAAAGAGUACUAGCAGCGGAGUGAUGUUCUGCGAAAGCAGAAGGUUCAUAACUCA [#08 K4 FMN B Same State] | 1.71
AAUAUAGUGAUGUUAUAUAAGAAGGAGUUACGAGGACCGGUACGGCCGCCACUCGAAACGAGUGAAGAAGGAGGAAGGAGGAGGA [SSTRyptA.A] | 0.453
AUUCGUUUAUGUGAUACCAGACUUUGCAGUGAUGUUGCUUUAAUUAAAGAUGUUUAGUUUGUCCCUUGGCAGCACUAUUUAUUUA [JR_SSTheophyB_Sub001] | 0.0684
AGGAGCGUGCGAUGGAAAUCGCACGCUCCUCGAGGACCGGUACGGCCGCCACUCGCUCGCGCCGAGUGAUGUUCGGCCGGCGAAG [#2 Same State - Tryptophan A Attempt #16 (HarryS)] | 0.0857
CGCGGCCCGCCGGAUACCAGUGACCCGCGGGAAACCGCGGGCCCAGAGUGAUGUUCGGGACACCCUUGGCAGCCGCCUGGGCGUG [#2 Same State - Theophylline B Attempt #1 (HarryS)] | 0.62
UUGGCAGUGAUGUUGCCAGACAUCACCGAAGGAGCGGGCGAAAGCCCAGGUAGGUCGCGGUAGCGGAGUGAUUCUCCGCGAGGGC [Same State Arginine A GF 23] | 0.937
UCCACGCUUAGAGGAUAUCGGAUUAGAGUGAUGUUCUAAAGACGCCCAGUGAUGUUGGAUGGUAUACGAGAAGGCUGUGGCGUGU [Same State FMN B GF5] | 0.551
GUAUACAUAGAUCACCUUGUAGUGAUGUUGCGAGGACCGGUACGGCCGCCACUCGAAGUACGAAAGUACAAAGAUCUAUGUAUAC [Exclusion Trypto A - 1] | 0.258
AGUGAUGUAUGGCGGUUUGUCACUUAUAAUCAGGAUAUAUAAACAAAUAGAAGGGAUGGCGGAGUGAUGUUCCGCCGGCCGCCAU [FMN A Exl V5] | 0.167
GCCGUACGCAUGGAUACCAGUUGCGAAGUGAUGUUUCGGGCGAUCAAAGGAUCGCCAGACAACCCUUGGCAGCCAUGCGUACGGC | 1.6
UGACUGGACUGAAGGAGCGCGCGAGACAAAGUCUCGAACUGCUAGUGAUGUUAGCAAAUAACGCAGGUAGGUCGCAGUCUAGUCU [ArgBS 11 #SwitchBubble #StaticStem #DoubleMagnet] | 0.137
AAGUGAUGUUGUAGUGAUGUUGUGAUGUUGCAGGAUAUAUAGUGAUGUAGAAGGGUAUGUGCAGUUUUUUUUUUUGAGUGUUGAU [dpdmullin] | 0.0599
AAUUUAUAUUUAUUCUUUAAAUGUUCAGAAGGAGCGUGAAUUAUCACAGGUAGGUCGCUGAGCUAGUGAUGUUGGCUAUAUACUA [whbob_Ex_Arginine_A_2t124] | 0.202
GCAGUCCGGACGGCCGCCACUAUCCGUAAAGUGAUGUUUUACGAACAAUCGAUUGCAUAUCAGAAUAGGACCGGGUCCGUCGACC [theeternabot_sameState_KL_Trp_B_15] | 0.212
GUACGCUCUCGAGUGAUGUUCGGUAAUAGAGAGGAUAUCGCUUUUGCGAGAAGGCUCUGAAUGAGGAAACUCGUUCUGAGUGUAC [FMN A 19] | 0.389
GGAUAGGAUAGAGGAUAUGGUAGUGAUGUUACCAAACUGGUUAAACAUGUCAGAAAACUGGCAUGACCAGAAGGCUGUCCUAUCG [FmnBX 27 U9] | 0.071
CUAUAAGUGCCGAGUGAUGUUCGGCCAAUACGAGGACCGGUACGGCCGCCACUCGGUCAGUCGGUGCCCACCGGGCAUGGCUGAC [Ortima] | 0.205
UGUGAUGUGUAGUGUGAUGUUUUGAAGGAUACCAGAGUGUUGUUAUUCCCUUGGCAGCUUGAGUGAUGUUUGAUGUUGUUGUUGU [aawemullin] | 0.26

Values compiled from the supplement of paper PMC9170038.
